- SYSTEM UNDER TEST: PI3Kδ (PI3 Kd) (Homo sapiens)
- Construct: purchased Millipore
- MEASUREMENT NOTES: PI3K HTRF enzymatic inhibition assay (cell-free), PI3Kd
- Type: biochemical
- CONDITION NOTES: recombinant PI3 Kd 0.60 nM, PIP2 2 μM, ATP 20 μM, 8 min incubation
TEST READOUT: IC50

>>> test_result("Cc1ccccc1-n1c(CSc2ncnc3[nH]cnc23)nn2ccc(C)c2c1=O")
"119 nM"

* * *

- SYSTEM UNDER TEST: PI3Kδ (PI3 Kd) (Homo sapiens, UniProt O00329)
- Construct: purchased Millipore
- Sequence (O00329 whole entry): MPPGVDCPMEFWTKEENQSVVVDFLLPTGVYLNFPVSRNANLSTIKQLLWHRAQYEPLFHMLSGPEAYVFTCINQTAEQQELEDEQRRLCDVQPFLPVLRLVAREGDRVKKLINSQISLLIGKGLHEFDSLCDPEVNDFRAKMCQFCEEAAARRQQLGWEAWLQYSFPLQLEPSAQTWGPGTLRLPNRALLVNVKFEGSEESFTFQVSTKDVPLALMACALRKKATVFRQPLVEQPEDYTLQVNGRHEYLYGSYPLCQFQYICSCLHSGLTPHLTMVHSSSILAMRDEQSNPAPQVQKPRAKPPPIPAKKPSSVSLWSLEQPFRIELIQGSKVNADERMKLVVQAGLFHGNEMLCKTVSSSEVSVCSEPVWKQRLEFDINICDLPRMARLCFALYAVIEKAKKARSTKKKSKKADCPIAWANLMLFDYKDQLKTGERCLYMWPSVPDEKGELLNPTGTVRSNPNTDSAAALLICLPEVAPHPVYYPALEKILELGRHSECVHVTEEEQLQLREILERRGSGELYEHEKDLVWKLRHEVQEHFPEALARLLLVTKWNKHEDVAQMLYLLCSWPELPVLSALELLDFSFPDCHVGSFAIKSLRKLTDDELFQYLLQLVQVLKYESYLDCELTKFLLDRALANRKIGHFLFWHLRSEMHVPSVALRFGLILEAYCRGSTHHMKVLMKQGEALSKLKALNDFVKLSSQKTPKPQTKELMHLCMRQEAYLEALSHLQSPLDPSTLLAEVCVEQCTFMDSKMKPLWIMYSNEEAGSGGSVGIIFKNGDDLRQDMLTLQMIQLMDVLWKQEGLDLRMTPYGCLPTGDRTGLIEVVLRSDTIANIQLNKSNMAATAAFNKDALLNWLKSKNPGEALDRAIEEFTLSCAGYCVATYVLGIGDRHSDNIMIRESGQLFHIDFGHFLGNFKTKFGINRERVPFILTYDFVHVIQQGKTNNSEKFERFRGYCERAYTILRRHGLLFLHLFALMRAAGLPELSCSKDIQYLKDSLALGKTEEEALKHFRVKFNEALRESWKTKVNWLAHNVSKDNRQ
- Sequence (P27986 whole entry partner): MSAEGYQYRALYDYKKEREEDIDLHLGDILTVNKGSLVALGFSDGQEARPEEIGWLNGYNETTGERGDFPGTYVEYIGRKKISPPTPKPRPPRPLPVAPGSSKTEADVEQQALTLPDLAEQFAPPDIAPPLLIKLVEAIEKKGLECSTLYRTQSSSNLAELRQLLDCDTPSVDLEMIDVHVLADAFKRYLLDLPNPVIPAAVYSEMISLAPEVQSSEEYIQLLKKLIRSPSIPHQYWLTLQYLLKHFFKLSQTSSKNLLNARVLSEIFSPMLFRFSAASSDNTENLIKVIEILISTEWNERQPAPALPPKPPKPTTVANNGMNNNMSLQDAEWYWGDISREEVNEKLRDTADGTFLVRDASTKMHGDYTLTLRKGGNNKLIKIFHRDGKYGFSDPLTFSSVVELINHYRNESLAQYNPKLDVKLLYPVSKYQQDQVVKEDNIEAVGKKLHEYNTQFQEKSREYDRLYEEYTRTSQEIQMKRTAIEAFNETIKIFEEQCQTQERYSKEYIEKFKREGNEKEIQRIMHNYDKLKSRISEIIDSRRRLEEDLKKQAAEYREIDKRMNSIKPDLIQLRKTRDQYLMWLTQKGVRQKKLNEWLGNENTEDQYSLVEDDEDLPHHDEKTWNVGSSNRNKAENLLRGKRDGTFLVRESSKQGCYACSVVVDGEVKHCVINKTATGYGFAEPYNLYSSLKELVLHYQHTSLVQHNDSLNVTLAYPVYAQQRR
- MEASUREMENT NOTES: PI3K HTRF enzymatic inhibition assay (cell-free), PI3Kd
- Assay type: biochemical
pIC50: −log10 of the molar value.
# cutoff 8 applies to pIC50; >= gives y, < gives n

>>> assigned_class("O=c1c2cccn2nc([C@H](CO)Nc2ncnc3[nH]cnc23)n1-c1ccccc1")
"n"
>>> assigned_class("O=c1c2cccn2nc([C@@H]2CCCN2c2ncnc3[nH]cnc23)n1-c1ccccc1")
"n"
>>> assigned_class("C[C@H](Nc1ncnc(N)c1C#N)c1nn2ccc(Br)c2c(=O)[nH]1")
"y"
>>> assigned_class("C[C@H](Nc1ncnc(N)c1F)c1nn2ccc(C(F)F)c2c(=O)n1-c1cc(F)cc(F)c1")
"n"
>>> assigned_class("CC[C@H](Nc1ncnc2[nH]cnc12)c1nn2cccc2c(=O)n1-c1ccccc1")
"n"
>>> assigned_class("C[C@H](Nc1ncnc(N)c1C#N)c1nn2ccc(C#N)c2c(=O)n1-c1cc(Cl)cc(Cl)c1")
"n"
